Exercise: state measured MIC for each of the molecules provided.
- Tested on: Pseudomonas F 41
- protocol summary: MIC, test tube series dilution test
- Assay type: cell-based
- recorded conditions: 24 hours, 37°C, liquid medium

Exercise: For the molecule Cc1cn(C(=O)N[C@@H](C(=O)N[C@@H]2C(=O)N3[C@@H]2SC(C)(C)[C@@H]3C(=O)O)c2ccccc2)[nH]c1=O , what MIC is on record?
Solution: 8 μ/ml

Exercise: For the molecule CC1(C)S[C@@H]2[C@H](NC(=O)C(C(=O)O)c3ccccc3)C(=O)N2[C@H]1C(=O)O (stereo partly drawn) [Carbenicillin, reference compound] , what MIC is on record?
Solution: > 200 μ/ml

Exercise: For the molecule Cc1cn(C(=O)N[C@@H](C(=O)N[C@@H]2C(=O)N3[C@@H]2SC(C)(C)[C@@H]3C(=O)O)C2=CCC=CC2)[nH]c1=O , what MIC is on record?
Solution: 8 - 16 μ/ml

Exercise: For the molecule CC1(C)S[C@@H]2[C@H](NC(=O)[C@H](NC(=O)n3cc(-c4ccccc4)c(=O)[nH]3)c3ccccc3)C(=O)N2[C@H]1C(=O)O , what MIC is on record?
Solution: 4 μ/ml

Exercise: For the molecule Cc1cn(C(=O)N[C@@H](C(=O)N[C@@H]2C(=O)N3[C@@H]2SC(C)(C)[C@@H]3C(=O)O)c2ccc(O)cc2)[nH]c1=O , what MIC is on record?
Solution: 8 - 16 μ/ml

Exercise: For the molecule CC1(C)S[C@@H]2[C@H](NC(=O)[C@H](N)c3ccccc3)C(=O)N2[C@H]1C(=O)O [Ampicillin, α-aminobenzylpenicillin, reference compound] , what MIC is on record?
Solution: > 400 μ/ml
